Source of measurements: ChEMBL document CHEMBL4689842

Population Mitotic Cells (%) reference
tested on: Fibroblast; test: Multiplex assay against human fibroblast; format: toxicity, cell-based; details: 48 h, 1 µM, compound concentration 1 uM, replicate 2
Could you give me the number in %? Just the number is fine.

Example cases with answers are listed next.
For the compound "CC(C)c1noc(N2CCC(COc3ccc(-c4ccc(S(C)(=O)=O)cc4)nc3)CC2)n1" , what Population Mitotic Cells (%) is on record? 0

For the compound "Cl.O=C(O)c1cc(-c2ccc(C3CCNCC3)cc2)c2ccc(-c3ccc(C(F)(F)F)cc3)cc2c1" , what Population Mitotic Cells (%) is on record? 0

For the compound "COC(=O)C1=C(C)NC(C)=C(C(=O)OCCCN2CCC(c3ccccc3)(c3ccccc3)CC2)[C@H]1c1cccc([N+](=O)[O-])c1" , what Population Mitotic Cells (%) is on record? 0

For the compound "CCCSc1nc(N[C@@H]2C[C@H]2c2ccc(F)c(F)c2)c2nnn([C@@H]3C[C@H](OCCO)[C@@H](O)[C@H]3O)c2n1" , what Population Mitotic Cells (%) is on record? 33

For the compound "CC(C)Oc1ccccc1C(=O)Nc1ccccc1C(=O)Nc1cccc(S(=O)(=O)C(F)(F)F)c1" , what Population Mitotic Cells (%) is on record? 40

For the compound "CNC(=O)Nc1ccc(-c2nc(N3CC4CCC(C3)O4)c3cnn(C4CCC5(CC4)OCCO5)c3n2)cc1" , what Population Mitotic Cells (%) is on record? 25

New cases:
For the compound "Cc1c[nH]c2nccc(Oc3c(F)cc(Nc4cc(Cl)nc(N)n4)cc3F)c12" , what Population Mitotic Cells (%) is on record? 0

For the compound "CCc1ccc(OCc2ccccc2C(=O)Nc2ccc3nc(C)cc(N)c3c2)cc1.Cl" , what Population Mitotic Cells (%) is on record? 15

For the compound Cc1cccc(CN2CCN(C(c3ccccc3)c3ccc(Cl)cc3)CC2)c1.Cl.Cl (stereo not given) , what Population Mitotic Cells (%) is on record? 12

For the compound "O=c1cc(N2CCOCC2)oc2c(-c3cccc4c3sc3ccccc34)cccc12" , what Population Mitotic Cells (%) is on record? 50

For the compound "CC(C)(C)NC[C@H](O)COc1nsnc1N1CCOCC1" , what Population Mitotic Cells (%) is on record? 66

For the compound "COc1ccc(-c2ccc3ncc4c(c3c2)n(-c2ccc(N3CCNCC3)c(C(F)(F)F)c2)c(=O)n4C)cn1.O=C(O)/C=C\C(=O)O" , what Population Mitotic Cells (%) is on record? 37

For the compound "CN1CCN(Cc2ccc(Nc3ncc(Cl)c(Nc4ccccc4S(=O)(=O)N(C)C)n3)cc2)CC1" , what Population Mitotic Cells (%) is on record? 33

For the compound "COc1cc(Nc2nccc(-c3cnn4nc(OC)ccc34)n2)cc(C(F)(F)F)c1" , what Population Mitotic Cells (%) is on record? 33

For the compound "C[C@]12CC[C@@H]3c4ccc(O)cc4CC[C@H]3[C@@H]1CC[C@@H]2O" , what Population Mitotic Cells (%) is on record? 100

====

test system: U2OS; test: Multiplex assay against U2OS; assay type: toxicity, cell-based; conditions: human, 12 h, 1 µM, compound concentration 1 uM, replicate 2
Population Normal (%) reference
Could you give me the number in %? Just the number is fine.

Example cases with answers are listed next.
For the molecule "O=c1cc(N2CCOCC2)oc2c(-c3cccc4c3sc3ccccc34)cccc12" , what Population Normal (%) is on record? 90

For the molecule COC(=O)C1=C(C)NC(C)=C(C(=O)OCCCN2CCC(c3ccccc3)(c3ccccc3)CC2)[C@H]1c1cccc([N+](=O)[O-])c1 [NIGULDIPINE] , what Population Normal (%) is on record? 90

Let's switch to this molecule now.
For the molecule O=C(c1cc2c(cc1F)OC(c1ccc(F)cc1)(c1ccc(Cl)cc1Cl)O2)N1CCOCC1 (stereo not drawn) , what Population Normal (%) is on record? 92
